The measured values listed here are drawn from PubChem BioAssay AID1996.

I'd appreciate it if you could supply solubility kinetic values for the items below.
# STATED CONDITIONS: buffer; pH 7.4; 200.0 µM
Answers are plain numbers, in µg/mL.

See these solved cases before continuing.
>>> print(df.to_string())
                                   compound  unit_info   val
0   CC(=O)Nc1ccc(OS(=O)(=O)c2ccc(Cl)cc2)cc1      µg/mL  38.6
1  COc1cc2c(cc1OC)C(NC(=O)c1ccc(C)cc1)CC2=O (stereo unspecified)      µg/mL   4.6
2   CN(C(=O)c1ccccc1OCc1ccc(Cl)cc1)c1ccccc1      µg/mL  10.7

State recorded solubility kinetic for all listed compounds.
1. Cc1ccc(OC(C)C(=O)Nc2ccc(Cl)cn2)c([N+](=O)[O-])n1 (stereo unspecified)
2. C1CN(CCN2CCOCC2)CCN1
3. Cc1ccc(NC(=O)c2cc3ccccc3o2)cc1
4. COc1ccc(Cl)cc1C(=O)NCc1ccc2c(c1)OCO2
5. CCn1c(=S)[nH]c2sc3c(c2c1=O)CCCC3
6. O=C(COC(=O)c1ccc[nH]c1=O)NCCC1=CCCCC1
7. COc1ccc(C(=O)NC(C)c2cccnc2)cc1S(=O)(=O)N(C)Cc1ccccc1 (stereo unspecified)

1. 18.7
2. 22.7
3. 1.5
4. 34.3
5. 9.2
6. 41.1
7. 47

// field: solubility kinetic; key: CC1(c2ccccc2)NC(=O)N(CC(=O)N2CC(=O)Nc3ccccc32)C1=O (stereo unspecified) ; value = 23.2

###

I'd appreciate it if you could supply solubility kinetic values for the items below.
# STATED CONDITIONS: buffer; pH 7.4; 200.0 µM

                            molecule             val
0  O=C(Cc1ccc(Br)cc1)OCC(=O)N1CCOCC1  > 0.0513 mg/mL

Below are 5 molecules. Give each one its solubility kinetic.
1. O=C(CCc1ccccc1)NCc1ccc2c(c1)OCO2
2. COc1ccccc1OCC#CCN1CCCC1.O=C(O)C(=O)O
3. CCn1c(SCC(=O)OC)nnc1-c1ccc(C)cc1
4. C=CCOc1ccc(/C=C/C(=O)OCC(=O)N2CCN(C(C)=O)CC2)cc1
5. Cc1nnc(SCC(=O)NCC2CCCO2)n1Cc1ccccc1 (stereo unspecified)

1. > 0.0425 mg/mL
2. > 0.0503 mg/mL
3. > 0.0437 mg/mL
4. > 0.0559 mg/mL
5. > 0.052 mg/mL

###

# STATED CONDITIONS: buffer; pH 7.4; 200.0 µM
REPORTED METRIC: solubility kinetic

In [3]: df
Out[3]:
                                   molecule           val
0  COc1ccc(NC(=O)C2CCCNC2=O)cc1 (centres undefined)  > 37.2 µg/mL
1  CCOc1ccc(Nc2nc(NCC(=O)O)nc(N)c2[N+](=O)[O-])cc1  > 52.2 µg/mL
2                   CC1=NN(C(N)=S)C(C)(C)C1  > 25.7 µg/mL
3  Cc1cc(-c2ccccc2)nc2oc3c(c12)NC(=O)CN(c1ccccc1)C3=O   < 0.3 µg/mL
4              CCc1nccn1Cc1cc(C=O)ccc1OC.Cl  > 42.1 µg/mL

For every item in the list below, what is its measured solubility kinetic?
1. CCn1c(SCC(=O)NC2CC2)nnc1-c1csc(C)c1
2. Cc1ccc(C(=O)CCC(=O)N2CCC(C(N)=O)CC2)s1

["> 48.4 µg/mL", "> 46.3 µg/mL"]

Parameters: items (list). Returns: solubility kinetic for each item.
1. O=S(=O)(NOCc1ccc(Cl)cc1)c1ccc(Cl)cc1
2. Cc1cc(C(=O)N2CCC(C(N)=O)CC2)c(C)o1

< 0.7 µg/mL
> 37.5 µg/mL

Lab note: each molecule below needs its solubility kinetic filled in.
1. CCc1ccc(C(=O)Nc2cc(C)on2)o1
2. Cc1cc2c(=O)n(C)c(SCC(=O)Nc3cccc(F)c3)nc2s1
3. CN1CCC(OC(=O)c2ccco2)CC1.Cl
4. COc1ccc(CCNC2CCCCCC2)cc1
5. NS(=O)(=O)c1cccc(NC(=O)c2ccno2)c1

["> 33 µg/mL", "< 0.3 µg/mL", "> 36.9 µg/mL", "> 37.1 µg/mL", "> 40.1 µg/mL"]

###

# STATED CONDITIONS: buffer; pH 7.4; 200.0 µM
REPORTED METRIC: solubility kinetic (µg/mL)
Answers are plain numbers, in µg/mL.

                        structure_as_smiles   val
0     CC(C)(C)c1ccc(S(=O)(=O)NCc2ccccn2)cc1  44.1
1  CN(Cc1ccccc1)C(=O)COC(=O)CCC(=O)c1ccc(F)cc1  14.8
2      COc1ccc(NC(=O)N2CCCc3ccccc32)c(OC)c1  45.3

Value of solubility kinetic reported for the molecule Cc1ccc2nc(-c3ccc4c(c3)OCCO4)cn2c1 is 35.1

###

# STATED CONDITIONS: buffer; pH 7.4; 200.0 µM
REPORTED METRIC: log10 solubility kinetic (log10 of the value in µg/mL)
Quick note: numbers are log10 of solubility kinetic, with µg/mL as the unit.

Here are 5 compounds together with their reported answers.
>>> print(df.to_string())
                                   compound           reported_metric   val
0           O=C(Cc1cccc(Cl)c1)Nc1ccc(Br)cc1  log10 solubility kinetic  0.46
1                 Brc1ccc2[nH]c3c(c2c1)CCC3  log10 solubility kinetic  0.49
2  OC1/C(=C/c2ccc(C(F)(F)F)cc2)N2CCC1CC2 (stereo not given)  log10 solubility kinetic  1.62
3                CC(=O)N(CCCN(C)C)Cc1ccccn1  log10 solubility kinetic  1.48
4  CC1CN(CC(=O)Nc2nc3ccccc3s2)CC(C)O1 (stereo not given)  log10 solubility kinetic  1.59

Would you mind listing log10 solubility kinetic for each of the following compounds?
1. CN1C(=O)CSC1=Nc1ccc(Br)cc1
2. CCN(CC)c1cc(Cl)c2nonc2c1N
3. O=C(NCc1csc2ccccc12)Nc1cc(Cl)cc(Cl)c1
4. CCNc1nc(-c2cc(C)n(Cc3ccco3)c2C)cs1

1.52
0.93
0.32
0.72

###

# STATED CONDITIONS: buffer; pH 7.4; 200.0 µM
Mark not fulfilled for solubility kinetic values under 30 µg/mL, and fulfilled for everything at or above.

As a guide, the following entries are already answered.
>>> df
                                   compound  label_value
0  O=C(Nc1nnc(-c2cccnc2)o1)c1cccc([N+](=O)[O-])c1    fulfilled
1                C=C(C)Cn1cnc2cc(C)c(C)cc21    fulfilled

In plain terms: is recorded solubility kinetic at least 30 µg/mL for Cc1ccc(C(=O)NCCNC(=O)c2ccccn2)cc1 ? fulfilled

Hi team, for CC(CC(=O)Nc1nccs1)c1ccccc1 (stereo unspecified) , is the recorded solubility kinetic at or above 30 µg/mL? fulfilled

Does COC(=O)c1sccc1NC(=O)Nc1ccc(OC)c(OC)c1 have a reported solubility kinetic of at least 30 µg/mL? fulfilled

###

# STATED CONDITIONS: buffer; pH 7.4; 200.0 µM
REPORTED METRIC: solubility kinetic (µg/mL)
Numbers only, in µg/mL.

These recorded examples may help you get a feel for the data.
                                   compound  unit_info   val
0    Cc1cc(C)c(O)c(NC(=S)NC(=O)Cc2ccccc2)c1      µg/mL   3.9
1    COCCN1C(=O)CS/C1=C(/C#N)C(=O)NCc1ccco1      µg/mL  41.4
2            COc1cc(CNCc2ccco2)cc(OC)c1O.Cl      µg/mL  41.4
3      CC(=O)c1ccc(NC(=O)N2CCc3ccccc3C2)cc1      µg/mL  34.3
4  CC(=O)N/C(=N/c1nc(C)cc(C)n1)Nc1cccc(C)c1      µg/mL  22.2

For every record below, what is its solubility kinetic?
1. CC(=O)Nc1ccc(NC(=S)NC(=O)/C=C/c2ccco2)cc1
2. CCOC(=O)C(=CNc1ccc(OC)cc1[N+](=O)[O-])C(=O)OCC
3. COc1ccc(C(=O)OCC(=O)NC(=O)Nc2ccccc2F)c(OC)c1
4. CC(=O)Oc1cccc(N2C(=O)C3C4C=CC(CC4)C3C2=O)c1 (configuration not stated)

1: 32.3; 2: 0.9; 3: 2.4; 4: 32.8

###

Kindly state solubility kinetic for each of the entries shown.
# STATED CONDITIONS: buffer; pH 7.4; 200.0 µM
Answers are plain numbers, in mg/mL.

Please review the following examples before continuing.
In [3]: df
Out[3]:
                                   compound     reported_metric     val
0             CCc1ccc(C(=O)Nc2cc(C)ccc2F)s1  solubility kinetic  0.0166
1  CC(C(Sc1ccccc1N)c1ccccc1)[N+](=O)[O-] (centres undefined)  solubility kinetic  0.0151
2       CN(C)c1ccc(/C=N/OC(=O)Nc2ccccc2)cc1  solubility kinetic   0.011
3  CC(=O)Nc1cccc(C(=O)OCN2C(=O)c3ccccc3C2=O)c1  solubility kinetic  0.0095
4                         Cc1c[nH]c2ccccc12  solubility kinetic  0.0068
5    S=C(Nc1ccc(Cl)cc1Cl)N1CCN(c2ccccn2)CC1  solubility kinetic   0.001

Hey, quick one: what's solubility kinetic for each of these?
1. Cc1nccc(-c2ccc3c(c2)OCO3)n1
2. CCOc1ccccc1C(=O)NCC(=O)N(C)Cc1cccnc1
3. Nc1sc2c(c1C(=O)NCCc1ccccc1)CCC2
4. COC(=O)c1ccc(CNC(=O)c2ccc(S(=O)(=O)N3CCCCCC3)cc2)cc1

1. 0.0303
2. 0.0448
3. 0.017
4. 0.0036
